# MEASURED TARGET: Alpha-1B adrenergic receptor (Homo sapiens, UniProt P35368)
# Sequence (P35368 whole entry): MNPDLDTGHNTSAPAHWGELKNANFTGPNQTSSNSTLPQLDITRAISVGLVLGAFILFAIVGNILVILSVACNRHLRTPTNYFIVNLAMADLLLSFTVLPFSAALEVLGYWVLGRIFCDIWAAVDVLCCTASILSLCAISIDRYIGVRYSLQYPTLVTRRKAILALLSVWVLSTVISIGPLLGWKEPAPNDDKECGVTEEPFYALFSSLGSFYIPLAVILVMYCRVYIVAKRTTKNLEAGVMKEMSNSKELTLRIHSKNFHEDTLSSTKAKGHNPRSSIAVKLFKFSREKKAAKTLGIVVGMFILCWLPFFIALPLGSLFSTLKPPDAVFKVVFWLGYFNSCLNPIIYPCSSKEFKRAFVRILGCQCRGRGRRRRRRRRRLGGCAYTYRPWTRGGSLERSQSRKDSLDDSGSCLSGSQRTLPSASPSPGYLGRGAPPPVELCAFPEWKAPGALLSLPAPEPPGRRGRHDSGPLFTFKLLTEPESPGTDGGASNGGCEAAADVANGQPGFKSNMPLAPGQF
QUANTITY KIND: Ki (nM)
Give your result in nM as a bare value.

QUERY: Reported Ki for O=C1COc2cc(CN3CCN(c4ccc(Cl)cc4)CC3)ccc2N1 : what is it?
RESULT: 787

All figures here come from ChEMBL document CHEMBL4038300.
